Source listed as patent US5891877A.

experimental-system: PAI-1 (Homo sapiens, UniProt P05121)
Sequence (P05121 24-402): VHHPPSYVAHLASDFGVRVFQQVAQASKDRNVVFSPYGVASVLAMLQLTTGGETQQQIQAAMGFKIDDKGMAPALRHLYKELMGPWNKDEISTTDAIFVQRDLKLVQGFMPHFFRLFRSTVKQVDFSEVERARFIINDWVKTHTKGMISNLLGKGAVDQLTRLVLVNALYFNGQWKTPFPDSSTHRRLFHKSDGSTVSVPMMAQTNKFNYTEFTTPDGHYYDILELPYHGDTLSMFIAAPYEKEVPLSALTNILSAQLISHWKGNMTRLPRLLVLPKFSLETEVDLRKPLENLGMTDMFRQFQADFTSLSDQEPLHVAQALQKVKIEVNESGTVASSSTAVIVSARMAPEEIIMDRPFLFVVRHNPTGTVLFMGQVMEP
assay-notes: PAI-1 inhibition in the S2251 chromogenic substrate assay (PAI functional assay)
Assay type: biochemical
assay-conditions: 20 μM; Table 1, second part; unit assumed
Counter-ions that a name gives are not always drawn.
property-name: INHIBITION OF PAI-1 (degree of inhibition) (%)

Query: Test system PAI-1 (Homo sapiens, UniProt P05121); read-out INHIBITION OF PAI-1 (degree of inhibition); what value for COc1cc2c(cc1OC)CN(CCc1ccc(NC(=O)c3ccc(/C=c4\[nH]c(=O)/c(=C/c5ccccc5)[nH]c4=O)cc3)cc1)CC2 [Compound 5393.HCl] ?
Response: 58

Query: Test system PAI-1 (Homo sapiens, UniProt P05121); read-out INHIBITION OF PAI-1 (degree of inhibition); what value for CN(C)CCCCCCOc1ccc(/C=c2\[nH]c(=O)/c(=C/c3ccccc3)[nH]c2=O)s1 [Compound 5389.HCl] ?
Response: 57

[a] CN(C)CCCOc1ccc(/C=c2\[nH]c(=O)/c(=C/c3ccc4ccccc4c3)[nH]c2=O)cc1
[b] CN(C)CCCOc1ccc(/C=c2\[nH]c(=O)/c(=C/c3ccc(C(=O)NCCCCN4CCc5ccccc5C4)cc3)[nH]c2=O)cc1 [Compound 5397.HCl]
Query: Endpoint returns whichever of a and b has the numerically higher INHIBITION OF PAI-1 (degree of inhibition). Lab note: record the label of whichever item you select.
Response: a

[a] O=C(NCCCN1CCc2ccccc2C1)c1ccc(/C=c2\[nH]c(=O)/c(=C/c3ccccc3)[nH]c2=O)cc1 [Compound 5394.HCl]
[b] O=C(NCCN1CCc2ccccc2C1)c1ccc(/C=c2\[nH]c(=O)/c(=C/c3ccccc3)[nH]c2=O)cc1 [Compound 5391.HCl]
[c] CN(C)CCCOc1ccc(/C=c2\[nH]c(=O)/c(=C/c3ccc(C(=O)NCCCCN4CCc5ccccc5C4)cc3)[nH]c2=O)cc1 [Compound 5397]
Query: Which order do these items take when sorted by rising INHIBITION OF PAI-1 (degree of inhibition)? List them. Use the labels to give the requested order.
Response: c, a, b
(c: 42%, a: 62%, b: 100%)

[1] CN(C)CCOCCOc1ccc(/C=c2\[nH]c(=O)/c(=C/c3ccccc3)[nH]c2=O)s1 [Compound 5388.HCl]
[2] CN(C)CCCOc1ccc(/C=c2\[nH]c(=O)/c(=C/c3cccc4ccccc34)[nH]c2=O)cc1 [Compound 5200]
[3] CN(C)CCCOc1ccc(/C=c2\[nH]c(=O)/c(=C/c3cccc4ccccc34)[nH]c2=O)cc1 [Compound 5205]
Query: Which order do these items take when sorted by rising INHIBITION OF PAI-1 (degree of inhibition)? List them. Use the labels to give the requested order.
Response: 2, 3, 1
(2: 10%, 3: 33%, 1: 60%)

---

experimental-system: PAI-1 (Homo sapiens)
assay-notes: PAI-1 inhibition in the S2251 chromogenic substrate assay (PAI functional assay)
Type: biochemical
assay-conditions: 50 μM; Table 1, second part; read-out: INHIBITION OF PAI-1 (degree of inhibition)
property-name: inhibition at 50 µM (%)

Example molecules with recorded inhibition at 50 µM:
Query: Any idea what inhibition at 50 µM was measured for O=c1[nH]/c(=C\c2ccc(OCCN3CCOCC3)cc2)c(=O)[nH]/c1=C\c1ccccc1 ?
Response: 57

Query: Any idea what inhibition at 50 µM was measured for CN(C)CCOc1ccc(/C=c2\[nH]c(=O)/c(=C/c3ccsc3)[nH]c2=O)cc1 ?
Response: 82

[I] CN(C)CCSCc1ccc(/C=c2\[nH]c(=O)/c(=C/c3ccsc3)[nH]c2=O)cc1
[II] CN(C)CC(=O)NCc1ccc(/C=c2\[nH]c(=O)/c(=C/c3ccoc3)[nH]c2=O)cc1
Query: Hi! Which is lower in terms of inhibition at 50 µM, the first one I or the second one II ? Lab note: record the label of whichever item you select.
Response: II
(II: 34%, I: 67%)

---

experimental-system: PAI-1 (Homo sapiens, UniProt P05121)
assay-notes: PAI-1 inhibition in the S2251 chromogenic substrate assay (PAI functional assay)
Format: biochemical
assay-conditions: 100 μm; Table 1, first part; unit assumed
property-name: INHIBITION OF PAI-1 (degree of inhibition) (%)

Example compounds with recorded INHIBITION OF PAI-1 (degree of inhibition):
Query: Test system PAI-1 (Homo sapiens, UniProt P05121); read-out INHIBITION OF PAI-1 (degree of inhibition); what value for COc1cc(C=C/C=c2\[nH]c(=O)/c(=C/c3ccccc3)[nH]c2=O)ccc1OCCN(C)C ?
Response: 19

Query: Test system PAI-1 (Homo sapiens, UniProt P05121); read-out INHIBITION OF PAI-1 (degree of inhibition); what value for COc1ccc(/C=c2\[nH]c(=O)/c(=C/c3ccoc3)[nH]c2=O)cc1 ?
Response: 68

Query: Test system PAI-1 (Homo sapiens, UniProt P05121); read-out INHIBITION OF PAI-1 (degree of inhibition); what value for O=c1[nH]/c(=C\c2c(Cl)cccc2Cl)c(=O)[nH]/c1=C\c1ccoc1 ?
Response: 75

[a] COc1ccc(/C=c2\[nH]c(=O)/c(=C/c3c[nH]c4ccccc34)[nH]c2=O)cc1
[b] O=c1[nH]/c(=C\c2ccc(OCCn3ccnc3)cc2)c(=O)[nH]/c1=C\c1ccccc1
[c] CC(C)(C)OC(=O)n1cc(/C=c2\[nH]c(=O)/c(=C/c3c(Cl)cccc3Cl)[nH]c2=O)c2ccccc21
Query: Which order do these items take when sorted by rising INHIBITION OF PAI-1 (degree of inhibition)? List them. Use the labels to give the requested order.
Response: b, c, a
(b: 27%, c: 50%, a: 87%)

---

experimental-system: PAI-1 (Homo sapiens, UniProt P05121)
assay-notes: PAI-1 inhibition in the S2251 chromogenic substrate assay (PAI functional assay)
Format: biochemical
assay-conditions: 12.5 μm; Table 1, first part; unit assumed
Where a name gives a salt, the structure may show the parent alone.
property-name: INHIBITION OF PAI-1 (degree of inhibition) (%)

[A] COc1cc(/C=c2\[nH]c(=O)/c(=C/c3ccccc3)[nH]c2=O)ccc1OCCN(C)C [Compound 1959, hydrochloride]
[B] CN(C)CCN(C)Cc1ccc(/C=c2\[nH]c(=O)/c(=C/c3ccccc3)[nH]c2=O)cc1 [Compound 1982, hydrochloride]
Query: Endpoint returns whichever of A and B has the numerically higher INHIBITION OF PAI-1 (degree of inhibition). Lab note: record the label of whichever item you select.
Response: B

[a] COc1ccc(/C=c2\[nH]c(=O)/c(=C/c3c[nH]c4ccccc34)[nH]c2=O)cc1
[b] O=c1[nH]/c(=C\c2ccc3c(c2)OCO3)c(=O)[nH]/c1=C\c1ccccc1
[c] O=c1[nH]/c(=C\c2ccc(Cn3ccnc3)cc2)c(=O)[nH]/c1=C\c1ccccc1
[d] CC(C)(C)OC(=O)n1cccc1/C=c1\[nH]c(=O)/c(=C/c2ccccc2)[nH]c1=O
Query: Which order do these items take when sorted by rising INHIBITION OF PAI-1 (degree of inhibition)? List them. Use the labels to give the requested order.
Response: d, b, a, c

---

experimental-system: PAI-1 (Homo sapiens, UniProt P05121)
assay-notes: PAI-1 inhibition in the S2251 chromogenic substrate assay (PAI functional assay)
Type: biochemical
assay-conditions: 100 μm; Table 1, first part; unit assumed
Structures can show the parent of a compound that is named as a salt.
property-name: INHIBITION OF PAI-1 (degree of inhibition) (%)

Query: Any idea what INHIBITION OF PAI-1 (degree of inhibition) was measured for CC(C)(C)OC(=O)n1cccc1/C=c1\[nH]c(=O)/c(=C/c2ccccc2)[nH]c1=O ?
Response: 70

Query: Any idea what INHIBITION OF PAI-1 (degree of inhibition) was measured for Cc1[nH]cnc1/C=c1\[nH]c(=O)/c(=C/c2ccccc2)[nH]c1=O ?
Response: 33

Query: Any idea what INHIBITION OF PAI-1 (degree of inhibition) was measured for CC(=O)Nc1ccc(/C=c2\[nH]c(=O)/c(=C/C3CCCCC3)[nH]c2=O)cc1 ?
Response: 70

[a] COc1cc(/C=c2\[nH]c(=O)/c(=C/c3ccccc3)[nH]c2=O)ccc1OCCN(C)C [Compound 1959, hydrochloride]
[b] CN(C)CCCOc1ccc(/C=c2\[nH]c(=O)/c(=C/c3ccc(-n4ccnc4)cc3)[nH]c2=O)cc1
[c] CCOC(OCC)c1ccc(/C=c2\[nH]c(=O)/c(=C/c3ccccc3)[nH]c2=O)cc1
[d] COc1ccc(/C=c2\[nH]c(=O)/c(=C/c3ccc4c(c3)OCO4)[nH]c2=O)cc1
Query: Sort the 4 molecules by INHIBITION OF PAI-1 (degree of inhibition); largest first, smallest last. Use the labels to give the requested order.
Response: d, c, a, b
(d: 81%, c: 28%, a: 5%, b: 3%)
